Measured IC50, listed per entry for reference.
target: ATX (human His-tagged) (Homo sapiens (Human), UniProt Q13822); assay: Human ATX enzyme inhibition assay (fluorescence quenching, MR121 substrate); type: biochemical; conditions: 30 nM ATX, 1 μM MR121 substrate, 30° C., pH 8.0
Structures can show the parent of a compound that is named as a salt.
parameter_measured: IC50 (nM)

- O=C(OCc1cc(Cl)cc(Cl)c1)N1CC[C@@H]2CN(C(=O)c3ccc4[nH]nnc4c3)C[C@H]2C1 (relative stereo): 9
- O=C(OCc1cc(Cl)cc(Cl)c1)N1C[C@H]2C[C@@H](Nc3ccc4[nH]c(=O)oc4c3)C[C@H]2C1: 248
- O=C(/C=C/c1ccc(OC(F)(F)F)cc1)N1CC[C@@H]2CN(C(=O)c3ccc4[nH]nnc4c3)C[C@@H]2CC1: 7
- COc1ccc(OCC(=O)N2CC[C@@H]3CN(C(=O)c4ccc5[nH]nnc5c4)C[C@@H]3CC2)c(C(C)(C)C)c1: 7
- N#Cc1ccc(/C=C/C(=O)N2CC[C@@H]3CN(C(=O)c4ccc5[nH]nnc5c4)C[C@@H]3CC2)c(F)c1: 3
- CC(C)(C)c1ccccc1OCC(=O)N1C[C@@H]2CN(C(=O)c3ccc4[nH]nnc4c3)C[C@H]2C1: 31
- O=C(OCC1C[C@H]2CC[C@@H]1C2)N1C[C@@H]2CN(C(=O)c3ccc4[nH]nnc4c3)C[C@@H]2C1 (stereo partly shown): 3850
- O=C(OCc1ccc(OCC(F)(F)F)cc1)N1C[C@@H]2CN(C(=O)c3ccc4[nH]nnc4c3)C[C@H]2C1: 6
- O=C(/C=C/c1ccc(OC(F)(F)F)cc1)N1CC[C@@H]2CN(C(=O)[C@@H]3Cc4[nH]cnc4CN3)C[C@@H]2CC1 [Example 18, hydrochloride]: 6740
- O=C(COc1ccc(OC(F)(F)F)cc1)N1C[C@@H]2CN(C(=O)[C@@H]3CCc4[nH]nnc4C3)C[C@H]2C1: 3
- O=C(/C=C/c1ccc(OC(F)(F)F)cc1)N1CC[C@@H]2CN(C(=O)N3CCc4ncccc4C3)C[C@@H]2CC1: 192
- O=C(/C=C/c1ccc(OC(F)(F)F)c(Cl)c1)N1C[C@H]2CCN(C(=O)c3ccc4[nH]nnc4c3)C[C@@H]2C1: 5
- Cc1cc(OCC(=O)N2C[C@@H]3CN(C(=O)c4ccc5[nH]nnc5c4)C[C@H]3C2)c(C(C)C)cc1C#N: 5
- O=C(OCc1ccc(C(F)(F)F)cc1F)N1C[C@@H]2CN(C(=O)c3ccc4[nH]nnc4c3)C[C@H]2C1: 9
- O=C(/C=C/c1ccc(OC(F)(F)F)cc1)N1CC[C@@H]2CN(C(=O)N3CCn4nc(C(F)(F)F)nc4C3)C[C@@H]2CC1: 1840
- O=C(/C=C/c1ccc([S+]([O-])C(F)(F)F)cc1)N1CC[C@@H]2CN(C(=O)c3ccc4[nH]nnc4c3)C[C@@H]2CC1 (stereo partly shown): 15
- O=C(c1ccc2[nH]nnc2c1)N1CC[C@@H]2CN(c3nnc(-c4ccc(Cl)cc4)o3)C[C@H]2C1 (relative stereo): 926
- CC(C)c1cc(C#N)ccc1COC(=O)N1C[C@@H]2CN(C(=O)[C@@H]3CCc4[nH]nnc4C3)C[C@H]2C1: 5
- O=C(OCc1cc(Cl)cc(Cl)c1)N1C[C@H]2CCN(C(=O)c3ccc4[nH]nnc4c3)C[C@@H]2C1 (relative stereo) [Example 12B]: 5
- Cc1ccc(/C=C/C(=O)N2CC[C@@H]3CN(C(=O)c4ccc5[nH]nnc5c4)C[C@@H]3CC2)cc1: 21
- O=C(/C=C/c1cc(Cl)cc(OC(F)(F)F)c1)N1C[C@@H]2CN(C(=O)c3ccc4[nH]nnc4c3)C[C@H]2C1: 6
- O=C(CCc1ccc(OC(F)F)cc1)N1C[C@@H]2CN(C(=O)c3ccc4[nH]nnc4c3)C[C@H]2C1: 16
- O=C(CCc1ccc(-c2ccccc2)cc1)N1C[C@@H]2CN(C(=O)c3ccc4[nH]nnc4c3)C[C@H]2C1: 3
- CN(Cc1cnn[nH]1)C(=O)N1C[C@H]2CCN(C(=O)CCc3ccc(OC(F)(F)F)cc3)CC[C@H]2C1: 85
- O=C(/C=C/N1C[C@@H]2CN(C(=O)[C@@H]3CCc4[nH]nnc4C3)C[C@H]2C1)c1ccc(OC(F)(F)F)cc1: 7
